Measured optical density accompanies every entry in the list below.
testedTarget: T1, mouse ACVR2A (mouse, UniProt P27038 20-135, limits assumed); also: test concentration or dose not given here
T1 construct: coated antigen of the initial ELISA
T1 sequence (P27038 20-135 limits assumed): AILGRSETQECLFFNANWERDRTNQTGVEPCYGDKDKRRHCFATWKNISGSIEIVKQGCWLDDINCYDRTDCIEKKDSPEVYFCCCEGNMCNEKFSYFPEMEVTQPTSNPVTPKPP
assayName: ELISA
# output: bare number, implied unit OD

Incoming: Value lookup for optical density; key = 367_G04 (antibody, V domains shown, Group III) VH: EVQLLESGGGLVQPGGSLRLSCAASGFTFSSYSMNWVRQAPGKGLEWVAGINYNSGYTSYADSVKGRFTISRDNSKNTLYLQMNSLRAEDTAVYYCARGANWHDTHLDYWGQGTLVTVSS VL: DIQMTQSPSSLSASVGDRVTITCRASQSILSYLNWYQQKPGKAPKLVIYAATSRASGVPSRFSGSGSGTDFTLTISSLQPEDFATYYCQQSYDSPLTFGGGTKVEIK
Outgoing: 3.04

Incoming: Value lookup for optical density; key = 374_C09 (antibody, V domains shown, Group III) VH: EVQLLESGGGLVQPGGSLRLSCAASGFTFDSYGMNWVRQAPGKGLEWVSSINYNGGYKGYADSVKGRFTISRDNSKNTLYLQMNSLRAEDTAVYYCARGANWHDTHLDYWGQGTLVTVSS VL: DIQMTQSPSSLSASVGDRVTITCRASQSIVSYLNWYQQKPGKAPKLVIYAATSRASGVPSRFSGSGSGTDFTLTISSLQPEDFATYYCQQSYELPLTFGGGTKVEIK
Outgoing: 3.51

Incoming: Value lookup for optical density; key = 376_B03 (antibody, V domains shown, Group III) VH: EVQLLESGGGLVQPGGSLRLSCAASGFTFSSYSMNWVRQAPGKGLEWVAGINYNSGYKSYADSVKGRFTISRDNSKNTLYLQMNSLRAEDTAVYYCARGANWHDTALDYWGQGTLVTVSS VL: DIQMTQSPSSLSASVGDRVTITCRASQSILSYVNWYQQKPGKAPKLVIYAVTSRHSGVPSRFSGSGSGTDFTLTISSLQPEDFATYYCQQSYDSPLTFGGGTKVEIK
Outgoing: 3.67
